target.under.test: ERα (Homo sapiens, UniProt P03372)
assay.protocol: Degradation of ERα in T-47D cells (immunoblotting, 4 h)
Type: cell-based
Design: host or cells: T-47D
experimental.conditions: 10nM compound
result.type: Degradation rate (%) of ERα in T-47D cells

Examples with their reported Degradation rate (%) of ERα in T-47D cells follow.
molecule	target.under.test	unit.annotation	endpoint.result
CN(C[C@H]1CC[C@H](C(=O)N2CCC3(CC2)COc2c3ccc3c2CN(C2CCC(=O)NC2=O)C3=O)CC1)[C@@H]1CCN(c2ccc([C@@H]3c4ccc(O)cc4CC[C@@H]3c3ccccc3)cc2)C[C@@H]1F (stereo partly drawn)	ERα (Homo sapiens, UniProt P03372)	%	81
O=C1CCC(N2Cc3c(ccc4c3OCC43CCN(C4CCN(C(=O)C5CCN(c6ccc(C7c8ccc(O)cc8CCC7c7ccccc7)cc6)CC5)C(C(=O)N5CCCC5)C4)CC3)C2=O)C(=O)N1 (stereo not drawn)	ERα (Homo sapiens, UniProt P03372)	%	73
O=C1CCC(N2Cc3cc4c(cc3C2=O)CCC2(CN(C3CCC(N5CCN(c6ccc([C@@H]7c8ccc(O)cc8CC[C@@H]7c7ccccc7)cc6)CC5)CC3)C2)O4)C(=O)N1 (stereo partly drawn)	ERα (Homo sapiens, UniProt P03372)	%	3
O=C1CCC(N2Cc3c(ccc4c3OCC43CCN(CC4CCC(N5CCN(c6ccc([C@@H]7c8ccc(O)cc8CC[C@@H]7c7ccccc7)cc6)CC5)CC4)CC3)C2=O)C(=O)N1 (stereo partly drawn)	ERα (Homo sapiens, UniProt P03372)	%	56
O=C1CCC(N2Cc3c(ccc4c3OCC43CCN(C(=O)C4CCC(N5CCN(c6ccc([C@@H]7c8ccc(O)cc8CC[C@@H]7c7ccccc7)cc6)CC5)CC4)CC3)C2=O)C(=O)N1 (stereo partly drawn)	ERα (Homo sapiens, UniProt P03372)	%	68
O=C1CCC(N2Cc3cc4c(cc3C2=O)OC2(CC4)CCN(CC3CCN(c4ccc(C5c6ccc(O)cc6CCC5c5ccccc5)cc4)C3)CC2)C(=O)N1 (stereo not drawn)	ERα (Homo sapiens, UniProt P03372)	%	-92
O=C1CCC(N2Cc3c(ccc4c3OCC43CCN(C(=O)C4CCC5(CC4)CCN(c4ccc([C@@H]6c7ccc(O)cc7CC[C@@H]6c6ccccc6)cc4)CC5)CC3)C2=O)C(=O)N1 (stereo partly drawn)	ERα (Homo sapiens, UniProt P03372)	%	66
O=C1CCC(N2Cc3c(ccc4c3OCC43CCN(CC(=O)N4CCC(C#Cc5ccc([C@@H]6c7ccc(O)cc7CC[C@@H]6c6ccccc6)cc5)CC4)CC3)C2=O)C(=O)N1 (stereo partly drawn)	ERα (Homo sapiens, UniProt P03372)	%	60
C[C@@H]1Cc2c([nH]c3ccccc23)[C@@H](c2c(F)cc(N3CCC(C(=O)N4CCC(N5CCC6(CC5)COc5c6ccc6c5CN(C5CCC(=O)NC5=O)C6=O)CC4)CC3)cc2F)N1CC(F)F (stereo partly drawn)	ERα (Homo sapiens, UniProt P03372)	%	74
O=C1CCC(N2Cc3c(ccc4c3OCC43CCN(C4CCN(C5CN(c6ccc([C@@H]7c8ccc(O)cc8CC[C@@H]7c7ccccc7)cc6)C5)CC4)CC3)C2=O)C(=O)N1 (stereo partly drawn)	ERα (Homo sapiens, UniProt P03372)	%	-2

[1] O=C1CCC(N2Cc3cc4c(cc3C2=O)OCC42CCN(CC3CCN(c4ccc([C@@H]5c6ccc(O)cc6CC[C@@H]5c5ccccc5)cc4)CC3)CC2)C(=O)N1 (stereo partly drawn)
[2] O=C1CCC(N2Cc3c(ccc4c3OCC43CCN(C(=O)[C@H]4CC[C@H](OC5CCN(c6ccc([C@@H]7c8ccc(O)cc8CC[C@@H]7c7ccccc7)cc6)CC5)CC4)CC3)C2=O)C(=O)N1 (stereo partly drawn)
Kindly identify which of 1 and 2 has the larger recorded Degradation rate (%) of ERα in T-47D cells value. Output the label that corresponds to your choice.
2

----------
target.under.test: ERα (Homo sapiens, UniProt P03372)
Sequence (P03372 1-595): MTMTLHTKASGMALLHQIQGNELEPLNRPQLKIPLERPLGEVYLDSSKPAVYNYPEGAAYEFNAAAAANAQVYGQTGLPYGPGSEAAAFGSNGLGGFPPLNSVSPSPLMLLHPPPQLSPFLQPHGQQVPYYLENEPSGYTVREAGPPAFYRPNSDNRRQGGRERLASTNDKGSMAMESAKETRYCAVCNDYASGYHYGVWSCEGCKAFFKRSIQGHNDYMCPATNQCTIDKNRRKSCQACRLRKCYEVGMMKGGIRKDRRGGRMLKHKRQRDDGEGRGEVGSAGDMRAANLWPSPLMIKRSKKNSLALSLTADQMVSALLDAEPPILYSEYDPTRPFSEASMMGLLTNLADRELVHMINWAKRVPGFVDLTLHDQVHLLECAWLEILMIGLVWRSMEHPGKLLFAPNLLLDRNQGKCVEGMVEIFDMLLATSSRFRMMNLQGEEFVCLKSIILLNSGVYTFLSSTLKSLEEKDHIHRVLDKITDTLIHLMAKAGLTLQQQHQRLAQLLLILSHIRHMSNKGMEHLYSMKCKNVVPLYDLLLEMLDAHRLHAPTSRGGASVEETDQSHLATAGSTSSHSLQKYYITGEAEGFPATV
assay.protocol: Degradation of ERα in T-47D cells (immunoblotting, 4 h)
Format: cell-based
Design: host or cells: T-47D
experimental.conditions: 10nM compound
result.type: Degradation rate (%) of ERα in T-47D cells

compound	endpoint.result
C[C@@H]1Cc2c([nH]c3ccccc23)[C@@H](c2c(F)cc(N3CCC4(CCC(N5CCC6(CC5)COc5c6ccc6c5CN(C5CCC(=O)NC5=O)C6=O)CC4)CC3)cc2F)N1CC(F)F (stereo partly drawn)	68

[1] CN(C(=O)CN1CCC2(CC1)COc1cc3c(cc12)CN(C1CCC(=O)NC1=O)C3=O)C1CCC2(CC1)CN(c1ccc([C@@H]3c4ccc(O)cc4CC[C@@H]3c3ccccc3)cc1)C2 (stereo partly drawn)
[2] O=C1CCC(N2Cc3c(ccc4c3OCC43CCN(C4CCN(C5CCN(c6ccc(C7c8ccc(O)cc8CCC7c7ccccc7)cc6)CC5)CC4F)CC3)C2=O)C(=O)N1 (stereo not drawn)
[3] O=C1CCC(N2Cc3cc4c(cc3C2=O)CCC2(CCN(CC3CCN(c5ccc(C6c7ccc(O)cc7CCC6c6ccccc6)cc5)C3)CC2)O4)C(=O)N1 (stereo not drawn)
[4] O=C1CCC(N2C(=O)c3cc4c(cc3C2=O)C2(CCN(C3CC5(CCN(c6ccc([C@@H]7c8ccc(O)cc8CC[C@@H]7c7ccccc7)cc6)CC5)C3)CC2)CO4)C(=O)N1 (stereo partly drawn)
Please list the entries, largest Degradation rate (%) of ERα in T-47D cells first. List the labels in the requested order.
2, 1, 4, 3

[I] O=C1CCC(N2Cc3c(ccc4c3OCC43CCN(C4CCN(C(=O)C5CCC6(CC5)CN(c5ccc([C@@H]7c8ccc(O)cc8CC[C@@H]7c7ccccc7)cc5)C6)CC4)CC3)C2=O)C(=O)N1 (stereo partly drawn)
[II] O=C1CCC(N2C(=O)c3cc4c(cc3C2=O)OCC2(CCN(C3CCC5(CC3)CCN(c3ccc(C6c7ccc(O)cc7CCC6c6ccccc6)cc3)CC5)CC2)C4)C(=O)N1 (stereo not drawn)
[III] O=C1CCC(N2Cc3ccc4c(c3C2=O)CC2(CCN(C3CCC5(CC3)CN(c3ccc([C@@H]6c7ccc(O)cc7CC[C@@H]6c6ccccc6)cc3)C5)CC2)CO4)C(=O)N1 (stereo partly drawn)
# rank by Degradation rate (%) of ERα in T-47D cells, ascending (min first) Would you mind listing the labels in the order asked for?
II, III, I
(II: 16%, III: 29%, I: 77%)

----------
target.under.test: ERα (Homo sapiens)
Sequence (P03372 1-595): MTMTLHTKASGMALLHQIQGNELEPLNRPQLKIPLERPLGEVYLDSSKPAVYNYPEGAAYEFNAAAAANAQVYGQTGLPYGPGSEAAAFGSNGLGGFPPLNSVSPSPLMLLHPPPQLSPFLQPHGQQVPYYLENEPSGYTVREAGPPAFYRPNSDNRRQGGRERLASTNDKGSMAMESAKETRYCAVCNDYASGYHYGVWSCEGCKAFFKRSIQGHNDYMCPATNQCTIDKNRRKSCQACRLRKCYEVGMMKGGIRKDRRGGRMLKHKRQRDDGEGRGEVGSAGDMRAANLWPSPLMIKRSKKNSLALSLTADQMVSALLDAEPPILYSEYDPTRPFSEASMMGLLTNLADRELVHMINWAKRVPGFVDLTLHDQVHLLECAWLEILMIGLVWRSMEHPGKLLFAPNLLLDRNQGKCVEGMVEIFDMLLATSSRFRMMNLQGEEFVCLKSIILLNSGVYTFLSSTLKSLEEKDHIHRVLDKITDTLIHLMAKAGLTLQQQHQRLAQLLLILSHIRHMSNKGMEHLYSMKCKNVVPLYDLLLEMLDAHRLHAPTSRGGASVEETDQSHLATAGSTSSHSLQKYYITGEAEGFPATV
assay.protocol: Degradation of ERα in T-47D cells (immunoblotting, 4 h)
Format: cell-based
Parameters: host or cells: T-47D
experimental.conditions: 10nM compound
result.type: Degradation rate (%) of ERα in T-47D cells

compound	endpoint.result
O=C1CCC(N2Cc3c(ccc4c3OCC43CCN(C4CCN(C5CC6(CCN(c7ccc([C@@H]8c9ccc(O)cc9CC[C@@H]8c8ccccc8)cc7)CC6)C5)CC4F)CC3)C2=O)C(=O)N1 (stereo partly drawn)	72

[1] O=C1CCC(N2Cc3c(ccc4c3OC3(CC4)CCN(C4CN(C5CCN(c6ccc([C@@H]7c8ccc(O)cc8CC[C@@H]7c7ccccc7)cc6)CC5)C4)CC3)C2=O)C(=O)N1 (stereo partly drawn)
[2] CN(CC(=O)N1CC2(CCc3cc4c(cc3O2)C(=O)N(C2CCC(=O)NC2=O)C4)C1)C1CCC2(CC1)CN(c1ccc([C@@H]3c4ccc(O)cc4CC[C@@H]3c3ccccc3)cc1)C2 (stereo partly drawn)
Could you kindly indicate whether 1 or 2 has the higher Degradation rate (%) of ERα in T-47D cells value? Mark your selection by writing its label.
2
(2: 50%, 1: 16%)
